The reported numbers originate from patent US10730875B2.

# assayNotes: Pharmacokinetics in Sprague-Dawley rats (HPLC-MS/MS of plasma)
# Assay type: in vivo
# testContext: Sprague-Dawley, plasma; PO, single dose 5.00 mg/kg, rat
measurementName: half-life (h)
API: value field is a number in h; no unit string.

Report measured half-life; entry is O=C(Nc1cn2c(-c3ccc(CN4CCS(=O)(=O)CC4)cc3F)cccc2n1)C1CC1
1.9

###

Please provide measured IC50 for the entries that follow.
# targetUnderTest: human tyrosine kinase 2 (TYK2), recombinant catalytic domain (Homo sapiens (Human), UniProt P29597)
# Sequence (P29597 833-1187): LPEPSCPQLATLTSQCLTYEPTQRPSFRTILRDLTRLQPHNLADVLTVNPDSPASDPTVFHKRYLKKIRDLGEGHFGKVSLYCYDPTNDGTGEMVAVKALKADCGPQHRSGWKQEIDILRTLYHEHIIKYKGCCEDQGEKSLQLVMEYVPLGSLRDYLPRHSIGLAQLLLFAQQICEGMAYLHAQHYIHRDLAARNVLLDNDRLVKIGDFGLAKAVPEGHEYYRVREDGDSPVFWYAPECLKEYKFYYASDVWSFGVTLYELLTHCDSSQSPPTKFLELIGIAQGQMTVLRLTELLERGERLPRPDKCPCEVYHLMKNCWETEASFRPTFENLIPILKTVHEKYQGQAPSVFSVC
# assayNotes: LanthaScreen TR-FRET enzymatic assay, TYK2
# Type: biochemical
# testContext: TR-FRET, 1 mM ATP, GFP-STAT1 substrate; read-out: Inhibitory Activity IC50 TYK2

Could you please provide reported IC50 for N#CCc1ccc(-c2cccc3nc(NC(=O)C4CC4)cn23)c(F)c1 [Compound 16] ? Thanks!
> 5 µM

Using known records, supply IC50 for COc1ccc(-c2cccc3nc(NC(=O)C4CC4)cn23)cc1 [Compound 10]
> 5 µM

Give IC50 for O=C(Nc1cn2c(-c3ccc(CN4CCOCC4)cc3)cccc2n1)C1CC1 [Compound 4]
> 5 µM

Determine its reported IC50: CC1(C)CN(C(=O)c2ccc(-c3cccc4nc(NC(=O)C5CC5)cn34)cc2F)C1 [Compound 24]
1 to 5 µM

Quick one: give measured IC50 for CC1(C)CN(C(=O)c2ccc(-c3cccc4nc(NC(=O)C5CC5)cn34)cc2)C1 [Compound 17]
1 to 5 µM

Retrieve IC50 measured for CC(C#N)c1ccc(-c2cccc3nc(NC(=O)C4CC4)cn23)cc1 (centres unmarked) [Compound 27] and print it.
> 5 µM

Give IC50 for O=C(Nc1cn2c(-c3ccc(CN4CCS(=O)(=O)CC4)cc3F)cccc2n1)C1CC1 [Compound 14]
1 to 5 µM

Give the measured IC50 for O=C(Nc1cn2c(-c3ccc(CN4CCS(=O)(=O)CC4)c(F)c3)cccc2n1)C1CC1 [Compound 28]
0.5 to 1 µM
